target: Aspartate--tRNA(Asp/Asn) ligase (Mycobacterium tuberculosis (strain ATCC 25618 / H37Rv)) (UniProt P9WFW3); note: in the data most compounds retested in dose-response had high values
Sequence (whole entry): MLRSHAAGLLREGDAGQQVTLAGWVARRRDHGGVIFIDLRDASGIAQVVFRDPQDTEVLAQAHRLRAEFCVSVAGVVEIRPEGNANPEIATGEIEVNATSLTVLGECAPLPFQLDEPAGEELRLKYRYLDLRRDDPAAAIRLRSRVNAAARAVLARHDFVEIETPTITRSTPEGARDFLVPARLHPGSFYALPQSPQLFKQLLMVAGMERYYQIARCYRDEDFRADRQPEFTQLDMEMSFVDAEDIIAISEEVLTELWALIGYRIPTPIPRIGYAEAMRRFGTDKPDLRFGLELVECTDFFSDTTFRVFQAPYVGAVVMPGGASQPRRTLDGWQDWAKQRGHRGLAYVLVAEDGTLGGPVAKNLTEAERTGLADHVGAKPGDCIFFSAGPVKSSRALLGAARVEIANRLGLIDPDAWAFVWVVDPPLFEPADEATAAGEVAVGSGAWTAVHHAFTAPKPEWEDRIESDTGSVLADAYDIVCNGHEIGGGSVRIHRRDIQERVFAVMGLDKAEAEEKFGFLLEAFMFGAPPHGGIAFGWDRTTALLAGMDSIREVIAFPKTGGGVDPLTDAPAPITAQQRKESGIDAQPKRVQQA
assay_name: Assay for Asp RNA synthetase-1 from Mycobacterium tuberculosis
Type: functional
Set-up: scale not given: direction of the effect not stated beside the values
measurement_parameters: 30 µM
endpoint_name: Percent Effect (%)
One number for each entry, in %.

>  <compound>
Cn1ccc(CN2CCC(CCc3ccc(O)cc3)CC2)cc1=O

>  <Percent Effect [%]>
-1.67

$$$$
>  <compound>
CCNC(c1cccnc1)c1cc(C)cc(C)c1 (configuration not stated)

>  <Percent Effect [%]>
-2.55

$$$$
>  <compound>
COc1ccccc1CC(=O)N1CCCC(n2nc(C)cc2C)C1 (configuration not stated)

>  <Percent Effect [%]>
-1.4

$$$$
>  <compound>
O=C(NC1CC1)[C@H]1C[C@@H]2CCN(CCc3ccccc3)C[C@H]2O1

>  <Percent Effect [%]>
3.49

$$$$
>  <compound>
COc1ccc(-c2noc(C(=O)NCCN3CCCCC3)n2)cc1OC

>  <Percent Effect [%]>
-1.25

$$$$

Would you be so kind as to report Percent Effect for each listed record?
1. Cc1cnn(CC2CN(Cc3cccc(C(=O)N(C)C)c3)CCO2)c1 (configuration not stated)
2. Cc1cc(CN2CC[C@H]3C(=O)N(c4ccccc4)CCO[C@H]3C2)no1

output:
[2.43, -4.96]

Please report Percent Effect for every entry that follows.
1. O=C(c1nn(-c2ccccc2F)cc1O)N1CCCC1
2. CCc1n[nH]c(C2CN(Cc3nnc(C4CC4)n3C)CCO2)n1 (configuration not stated)
3. Cc1nc(CN2CC3(CCN(c4ncc(F)cn4)C3)CC2=O)cs1 (configuration not stated)
4. CC(C)c1n[nH]c(C2CN(Cc3nnc(C4CC4)o3)CCO2)n1 (configuration not stated)
5. CNC(=O)[C@@]12CCC3(CCN(C(C)=O)CC3)[C@@H]1CN(S(C)(=O)=O)C2

output:
[3.09, -0.577, 3.16, -2.26, -0.917]

###

For each entry below, report its Percent Effect value.
target: Shiga toxin 2 (Escherichia coli O157:H7) (UniProt P09385+P09386)
assay_name: E. coli 0.157:H7 Shiga Toxin SOP - stx2 screening assay
Format: functional
Parameters: scale not given: direction of the effect not stated beside the values
measurement_parameters: 30 µM
Numbers only, in %.

A selection of reference data follows.
>  <molecule>
CCc1nc(CN2CCCN(C(=O)C(C)n3cncn3)CC2)cs1 (centres undefined)

>  <quantity_unit>
%

>  <Percent Effect>
9.04

$$$$
>  <molecule>
Cc1ncsc1CN1C[C@@H]2COC[C@]2(COc2ccc(C#N)cn2)C1

>  <quantity_unit>
%

>  <Percent Effect>
-16.3

$$$$

Respectfully, I request Percent Effect for each entry included below.
1. O=C(c1ccc2c(c1)OCO2)N1CCCC(n2cccn2)C1 (centres undefined)
2. COc1cccc2c1ccn2CC(=O)N[C@@H](CCSC)C(=O)O
3. CN1CCN(C[C@@H]2OC[C@H]3CN(Cc4ccsc4)CC[C@H]32)CC1
4. COc1cccc(-n2nnc(C(=O)N3CCNC(=O)C3)c2C)c1
5. CCn1cc(CN2CCCN(C(=O)C3=NN(C)C(=O)CC3)CC2)cn1
6. Cc1n[nH]c(C)c1NC(=O)CN1CCOC(Cn2cccn2)C1 (centres undefined)
7. N#Cc1c(F)cccc1N1CCN(S(=O)(=O)c2cccs2)CC1

output:
1: 23.2; 2: -11.2; 3: 3.13; 4: -7.95; 5: 10.4; 6: 31.6; 7: -12.3

###

target: Arginase-2, mitochondrial (Homo sapiens)
assay_name: in vitro enzyme assay to detect the production of urea directly proportional to the activity of Arginase II; note: in the data most compounds retested in dose-response had high values
Type: functional
Parameters: scale not given: direction of the effect not stated beside the values
measurement_parameters: 33.3 µM
endpoint_name: Percent Effect (%)
Answers are plain numbers, in %.

Provide each entry's Percent Effect from the list below.
1. c1ccc(CO[C@@H]2CO[C@@]3(CCN(Cc4ccccn4)C3)C2)nc1
2. c1cncc(OC[C@]23COC[C@H]2CN(Cc2cccs2)C3)c1

output:
1: 4.75; 2: -0.417

###

Would you kindly list Percent Effect for each of these compounds?
target: Aspartate--tRNA(Asp/Asn) ligase (Mycobacterium tuberculosis (strain ATCC 25618 / H37Rv)) (UniProt P9WFW3); note: in the data most compounds retested in dose-response had high values
Sequence (whole entry): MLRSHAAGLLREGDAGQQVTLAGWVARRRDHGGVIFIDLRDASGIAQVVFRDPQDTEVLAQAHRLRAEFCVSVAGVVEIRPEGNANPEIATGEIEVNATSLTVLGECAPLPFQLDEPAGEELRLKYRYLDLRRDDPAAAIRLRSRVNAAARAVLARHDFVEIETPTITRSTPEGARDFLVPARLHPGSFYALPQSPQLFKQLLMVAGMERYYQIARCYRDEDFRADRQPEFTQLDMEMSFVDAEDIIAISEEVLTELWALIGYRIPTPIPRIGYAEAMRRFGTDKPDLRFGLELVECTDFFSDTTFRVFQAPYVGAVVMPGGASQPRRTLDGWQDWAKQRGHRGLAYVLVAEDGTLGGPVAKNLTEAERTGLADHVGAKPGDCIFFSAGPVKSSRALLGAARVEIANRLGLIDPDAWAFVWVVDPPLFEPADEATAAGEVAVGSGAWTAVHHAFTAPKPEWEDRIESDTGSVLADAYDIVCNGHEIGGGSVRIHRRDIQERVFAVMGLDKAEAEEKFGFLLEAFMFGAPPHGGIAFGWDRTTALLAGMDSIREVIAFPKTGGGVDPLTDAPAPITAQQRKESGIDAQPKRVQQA
assay_name: Assay for Asp RNA synthetase-1 from Mycobacterium tuberculosis
Format: functional
Parameters: scale not given: direction of the effect not stated beside the values
measurement_parameters: 30 µM
One number for each entry, in %.

See these solved cases before continuing.
>  <compound>
CN(C)c1ccc(C(=O)N2CCN(C(=O)N3CCCCC3)CC2)nn1

>  <Percent Effect, %>
-3.34

$$$$
>  <compound>
CCc1nnsc1C(=O)NCCn1nc2ccccn2c1=O

>  <Percent Effect, %>
-6.91

$$$$
>  <compound>
O=C(COCc1nc(-c2ccncc2)no1)N1CCCC1

>  <Percent Effect, %>
15.3

$$$$
>  <compound>
COCCO[C@@H]1CCN(Cc2csc(C)n2)[C@H]1Cc1ccccc1

>  <Percent Effect, %>
3.03

$$$$

Lab note: each compound below needs its Percent Effect filled in.
1. CC(C)c1cc(NCC(O)CO)n2nccc2n1 (configuration not stated)
2. Cc1cc(C)n(C2CN(CC(=O)N3CCOCC3)C2)n1
3. O=C(NCCN1CCc2ccccc2C1)c1scnc1Cl
4. O=C(c1ccccn1)N1Cc2nccn2CC(COc2cccnc2)C1 (configuration not stated)
5. CC(C)CCN1CC2(CCCN(C(=O)c3cscn3)C2)CCC1=O (configuration not stated)
6. O=C1C(NS(=O)(=O)c2cc(F)cc(F)c2)CCN1Cc1ccccc1 (configuration not stated)
7. CN1CCC2(CC1)C(=O)N(CC1CC1)c1ccccc12
8. COc1ccc(C2CCCCCN2S(=O)(=O)N(C)C)cc1 (configuration not stated)

output:
-1.68
-0.655
1.6
3.15
8.2
-5.71
-2.3
-8.89

###

target: Shiga toxin 2 (Escherichia coli O157:H7) (UniProt P09385+P09386)
assay_name: E. coli 0.157:H7 Shiga Toxin SOP - stx2 screening assay
Type: functional
Set-up: scale not given: direction of the effect not stated beside the values
measurement_parameters: 30 µM
Hi there, I'd appreciate the recorded Percent Effect for every entry that follows.
Give bare numbers, in %.

Here are 3 molecules together with their reported answers.
>  <molecule>
O=C1[C@H]2CN(CC3CC3)C[C@H]2CN1Cc1cccc(F)c1

>  <target>
Shiga toxin 2 (Escherichia coli O157:H7) (UniProt P09385+P09386)

>  <endpoint_value>
-1.04

$$$$
>  <molecule>
O=C(COc1ccccc1)N1C[C@@H](O)[C@H](N2CCCC2)C1

>  <target>
Shiga toxin 2 (Escherichia coli O157:H7) (UniProt P09385+P09386)

>  <endpoint_value>
-14.2

$$$$
>  <molecule>
O=C(c1cc(Cl)c2c(c1)OCO2)N1CCN(c2nccs2)CC1

>  <target>
Shiga toxin 2 (Escherichia coli O157:H7) (UniProt P09385+P09386)

>  <endpoint_value>
-4.3

$$$$

// each listed molecule needs a value for Percent Effect
1. COCc1nc(C(=O)N2CCCCC2Cn2cccn2)cs1 (centres undefined)
2. Cc1nn(C)c(C)c1C1CCCN1C(=O)CCCn1cccn1 (centres undefined)
3. CC(=O)N(Cc1ncc(C(C)C)o1)C1CCN(CCn2cccn2)C1 (centres undefined)
4. O=C(NCC(O)c1ccc(F)c(F)c1)c1cccnc1OCC(F)(F)F (centres undefined)
5. O=C(C1CC1)N1CCC2(CC1)OCCO2
6. CN1CCN(CCO)C(=O)C12CCN(Cc1ccsc1)CC2
7. Cc1cc(C(C)C(=O)N2CCCN(Cc3cscn3)CC2)c(C)o1 (centres undefined)
8. CC1(C)CC(N2Cc3nc(N)ncc3C2=O)CC(C)(C)N1

output:
1: 16.6; 2: 10.6; 3: 3.59; 4: -9.04; 5: -6.13; 6: -1.74; 7: 19.4; 8: -32.6
